Target: PltB homopentamer, biotinylated (Salmonella enterica serovar Typhi; …, UniProt Q8Z6A3, biotinylated with EZ-link NHS-Biotin (sites not given))
Experimental readout: binding result

[[record]]
binder = "T2E8 (VHH) VHH: QVQLAESGGGSVQAGGSLRLSCAASGLTFDKYAIGWFRQAPGKGREMVSCINTNYGSTYYADSVKGRFTISSDTAKNTVYLQMNSLSPEDTAVYYCAADTRSSWPSCNALDTWGQGTLVTVSS"
test_result = "binds"

[[record]]
binder = "T2H1 (VHH) VHH: QVQLVESGGGLVQAGGSLRLSCAASGFTFDDYAIGWFRQAPGKEREQILCINSNRARTSYYAESIKGRFTVSVNSAKNTVYLQMNSLKPEDTAVYYCAADVTHPHSCNALDAWGQGTLVTVSS"
test_result = "binds"

